Listed here: items and their measured AC50.
# Test system: INS1
# assayOverview: beta cell apoptosis inhibitors, cytokine rescue, dose response, luminescence, retest (AID 449756);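 note: cell death triggered by IL-1 beta plus TNF-alpha plus IFN-gamma mixture; protective hits raise ATP signal compared with cytokine alone wells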
# Format: functional, cell-based
# testParameters: Rattus norvegicus
The source made the active and inactive calls.
propertyName: AC50

smilesrepresentation=CCOC(=O)c1c(C)[nH]c(C)c1C(=O)CSc1nc2ccccc2c(=O)n1-c1ccc(CC)cc1 readoutvalue="5.33 µM (active)"
smilesrepresentation=CSc1nc(N)nc2c1ncn2CC(=O)N1CCN(Cc2c(C)cc(C)cc2C)CC1 readoutvalue="1.98 µM (active)"
smilesrepresentation=COc1cc(CSc2nnnn2-c2ccc(C)cc2)cc(OC)c1OC readoutvalue="2.98 µM (active)"
smilesrepresentation=c1ccc(CNc2nc(NCc3ccccc3)c3ccccc3n2)cc1 readoutvalue="7.6 µM (active)"
smilesrepresentation=Cc1ccc(NS(=O)(=O)c2cc([N+](=O)[O-])ccc2NN=C(S)Nc2cc(C)ccc2C)c(C)c1 readoutvalue="4.42 µM (active)"
smilesrepresentation=CCCCCCc1cc2cc(-c3nnc(-c4ccccc4)o3)c(=O)oc2cc1O readoutvalue="7.4 µM (active)"
smilesrepresentation=O=C(C1CCC1)N1CCc2cc(S(=O)(=O)Nc3ccc4c(c3)OCCO4)ccc21 readoutvalue="5.88 µM (active)"
smilesrepresentation=CCN1/C(=C/C=C/c2oc3ccc(-c4ccccc4)cc3[n+]2CC)Oc2ccc(-c3ccccc3)cc21 readoutvalue="0.23 µM (active)"

---

Listed here: items and their measured IC50.
# target: Prothrombin (Homo sapiens)
# assayOverview: Thrombin 1536 HTS Dose Response Confirmation. [Related pubchem assays: 1046 (Thrombin 1536 HTS; hits were confirmed in this assay)]
# Assay type: functional
Activity calls are given as the source filed them.
propertyName: IC50

molecule=CN1C(=O)/C(=N/OC(=O)c2ccccc2)c2ccccc21 propertyname=IC50 readoutvalue="5.05 µM (active)"
molecule=CCCCc1nc2ccccc2c(NC(=O)CNC(C)(C)C)c1CCC propertyname=IC50 readoutvalue="> 50 µM (not active)"
molecule=CSc1nc(-c2ccco2)nn1C(=O)c1ccccc1 propertyname=IC50 readoutvalue="0.082 µM (active)"
molecule="COc1cccc2cc(C(=O)NCC3CCCO3)c(=O)oc12 (centres undefined)" propertyname=IC50 readoutvalue="> 50 µM (not active)"

---

Listed here: items and their measured IC50.
# target: Probable nicotinate-nucleotide adenylyltransferase (Staphylococcus aureus (strain N315), UniProt P65502);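 note: confirmatory retest of primary uHTS inhibitor hits against NadD over a range of doses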
# Sequence (P65502 whole entry): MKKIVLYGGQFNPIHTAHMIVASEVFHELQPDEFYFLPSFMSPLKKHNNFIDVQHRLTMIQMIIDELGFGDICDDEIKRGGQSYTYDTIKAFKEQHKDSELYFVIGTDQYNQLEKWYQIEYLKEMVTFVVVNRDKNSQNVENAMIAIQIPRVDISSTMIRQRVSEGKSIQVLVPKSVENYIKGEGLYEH
# Assay type: functional, Staphylococcus aureus subsp. aureus N315
Activity calls are given as the source filed them.
propertyName: IC50

smilesrepresentation=O=C(Cc1cc(O)[nH]n1)N/N=C/C=C/c1ccccc1 readoutvalue="7.45 µM (active)"
smilesrepresentation=N#C/C(=C/c1cn(-c2ccccc2)nc1-c1cccc(S(=O)(=O)N2CCCC2)c1)C(=O)NCc1ccco1 readoutvalue="14.4 µM (active)"
smilesrepresentation=CC(C)C[C@@H](CNCC(=O)[C@H](CC(=O)O)NC(=O)c1nc[nH]c1C(=O)N[C@H](CN)CC(C)C)NC(=O)c1[nH]cnc1C(=O)N[C@@H](Cc1ccccc1)C(=O)O readoutvalue="12.4 µM (active)"
smilesrepresentation=O=C(NNC(=O)c1cc(-c2ccc(Cl)cc2)nc2ccccc12)c1csc(N2CCOCC2)n1 readoutvalue="20.8 µM (active)"

---

# target: High affinity choline transporter 1 (Homo sapiens, UniProt Q9GZV3)
# Sequence (Q9GZV3 whole entry): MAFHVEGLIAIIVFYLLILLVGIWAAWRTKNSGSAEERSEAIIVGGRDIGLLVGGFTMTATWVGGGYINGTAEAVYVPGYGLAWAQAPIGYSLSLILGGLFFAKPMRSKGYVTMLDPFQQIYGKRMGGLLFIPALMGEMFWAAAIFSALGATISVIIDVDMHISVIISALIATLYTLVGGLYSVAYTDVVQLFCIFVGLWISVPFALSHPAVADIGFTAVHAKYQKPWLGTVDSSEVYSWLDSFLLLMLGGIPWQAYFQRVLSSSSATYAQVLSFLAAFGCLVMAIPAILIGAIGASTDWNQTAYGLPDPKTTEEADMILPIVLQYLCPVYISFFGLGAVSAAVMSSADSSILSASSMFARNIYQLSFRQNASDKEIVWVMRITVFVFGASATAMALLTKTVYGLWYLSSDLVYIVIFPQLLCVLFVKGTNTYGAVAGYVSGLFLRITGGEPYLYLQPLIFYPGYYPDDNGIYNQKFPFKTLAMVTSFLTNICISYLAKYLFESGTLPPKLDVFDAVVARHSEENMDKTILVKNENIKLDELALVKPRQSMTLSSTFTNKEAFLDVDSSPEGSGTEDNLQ
# assayOverview: CHT inhibitors, dose response, cell-based, 5-point CRC, membrane potential dye (AID 504840)
# Format: functional
Calls of active or inactive are those of the source.
propertyName: IC50

molecule=O=C(Nc1nnc(-c2ccc(F)cc2)o1)c1cc(Cl)sc1Cl target="High affinity choline transporter 1 (Homo sapiens, UniProt Q9GZV3)" readoutvalue="14.5 µM (active)"
molecule="COc1ccccc1CN1C(=O)[C@@H]2C(CCC(N)=O)NC3(C(=O)Nc4c3ccc(Cl)c4C)[C@@H]2C1=O (stereo not given in full)" target="High affinity choline transporter 1 (Homo sapiens, UniProt Q9GZV3)" readoutvalue="16.6 µM (active)"
molecule=Cc1nnc(NC(=O)c2nc(S(=O)(=O)Cc3ccccc3)ncc2Cl)s1 target="High affinity choline transporter 1 (Homo sapiens, UniProt Q9GZV3)" readoutvalue="7.31 µM (active)"
molecule=C=Cn1cc[n+](CC(=O)c2ccc(Br)cc2)c1 target="High affinity choline transporter 1 (Homo sapiens, UniProt Q9GZV3)" readoutvalue="15.1 µM (active)"
molecule=CCCCc1ccc(NC(=O)CSc2nc(=O)n(CCCN3CCOCC3)c3c2CCC3)cc1 target="High affinity choline transporter 1 (Homo sapiens, UniProt Q9GZV3)" readoutvalue="13.8 µM (active)"

---

Listed here: items and their measured GI50.
# Tested on: SN12K1
# assayOverview: cells
# Type: functional
# testParameters: Homo sapiens
Calls of active or inactive are those of the source.
propertyName: GI50

compound="CC[C@](C)(O)C(=O)O[C@H]1C(=O)O[C@@H]2C[C@H]3C(C)=CC(=O)[C@@H](O)[C@]3(C)[C@H]3[C@@]4(O)OC[C@]32[C@@H]1[C@@H](C)[C@H]4O [GLAUCARUBINONE]" target=SN12K1 readoutvalue="50 nM (active)"
compound="N#CC(OC1OC(COC2OC(CO)C(O)C(O)C2O)C(O)C(O)C1O)c1ccccc1 (stereo not given)" target=SN12K1 readoutvalue="> 225000 nM (inactive)"
compound="CSCC[C@@H](NC(=O)[C@H](CC(C)C)NC(=O)C(Cc1cnc[nH]1)NC(=O)CNC(=O)[C@@H](NC(=O)[C@H](C)NC(=O)[C@H](Cc1c[nH]c2ccccc12)NC(=O)[C@H](CCC(N)=O)NC(=O)[C@@H](N)CC(N)=O)C(C)C)C(N)=O (stereo not given in full)" target=SN12K1 readoutvalue="> 100000 nM (inactive)"
compound="COC1=C(N)C(=O)c2nc(-c3nc(C(=O)O)c(C)c(-c4ccc(OC)c(OC)c4O)c3N)ccc2C1=O [STREPTONIGRIN]" target=SN12K1 readoutvalue="< 10 nM (active)"
compound=Cc1c2cnccc2c(C)c2c1c1ccccc1n2CCCN target=SN12K1 readoutvalue="222 nM (active)"

---

Calls of active or inactive are those of the source.
Notes on AC50 obtained with Cytochrome P450 1A2 (Homo sapiens).
Sequence (P05177 whole entry): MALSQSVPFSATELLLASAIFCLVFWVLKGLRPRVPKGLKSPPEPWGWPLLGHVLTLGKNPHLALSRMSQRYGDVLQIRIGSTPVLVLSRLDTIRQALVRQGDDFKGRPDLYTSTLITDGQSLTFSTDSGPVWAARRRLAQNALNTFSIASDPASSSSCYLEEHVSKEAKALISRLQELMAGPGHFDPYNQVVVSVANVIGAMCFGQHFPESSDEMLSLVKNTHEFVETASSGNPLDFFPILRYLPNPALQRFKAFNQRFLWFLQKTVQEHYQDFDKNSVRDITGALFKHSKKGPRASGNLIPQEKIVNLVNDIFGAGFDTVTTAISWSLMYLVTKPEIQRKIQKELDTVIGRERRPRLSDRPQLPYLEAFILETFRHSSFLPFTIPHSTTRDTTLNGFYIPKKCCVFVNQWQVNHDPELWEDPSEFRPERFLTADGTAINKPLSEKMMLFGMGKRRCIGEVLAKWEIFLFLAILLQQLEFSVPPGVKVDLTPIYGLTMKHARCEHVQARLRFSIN
propertyName: AC50

molecule=Cn1c(CC(=O)Nc2ccc(Cl)c(Cl)c2)nnc1SCC(=O)N1CCN(c2ccccc2)CC1 target="Cytochrome P450 1A2 (Homo sapiens)" propertyname=AC50 readoutvalue="15.8 µM (inconclusive)"
molecule="CCC/C=C(\\CCC)C(NS(=O)(=O)c1ccccc1)c1ccc(C(F)(F)F)cc1 (stereo not given)" target="Cytochrome P450 1A2 (Homo sapiens)" propertyname=AC50 readoutvalue="12.6 µM (inconclusive)"
molecule=Cn1cc(-c2nc3cncnc3n(Cc3ccc(F)cc3)c2=O)c2ccccc21 target="Cytochrome P450 1A2 (Homo sapiens)" propertyname=AC50 readoutvalue="1.26 µM (inconclusive)"
molecule=COc1cccc(Nc2ncc3nc(-c4cccs4)c(=O)n(-c4ccccc4)c3n2)c1 target="Cytochrome P450 1A2 (Homo sapiens)" propertyname=AC50 readoutvalue="3.16 µM (inconclusive)"
molecule=COCCn1c(=O)c(-c2cc(F)cc(F)c2)nc2cnc(N(C)C)nc21 target="Cytochrome P450 1A2 (Homo sapiens)" propertyname=AC50 readoutvalue="5.01 µM (inconclusive)"
molecule=Clc1ccccc1OCCCCN1CCCC1 target="Cytochrome P450 1A2 (Homo sapiens)" propertyname=AC50 readoutvalue="15.8 µM (inconclusive)"
molecule=COc1ccccc1OCC(=O)NNC(=O)c1cnccn1 target="Cytochrome P450 1A2 (Homo sapiens)" propertyname=AC50 readoutvalue="17.8 µM (inconclusive)"
molecule=CC(C)OC(=O)/C(=C\c1ccc2c(c1)c1ccccc1n2C)NC(=O)c1ccccc1 target="Cytochrome P450 1A2 (Homo sapiens)" propertyname=AC50 readoutvalue="2.24 µM (inconclusive)"
molecule=O=C1C(c2ccccn2)=[N+]([O-])c2ccccc21 target="Cytochrome P450 1A2 (Homo sapiens)" propertyname=AC50 readoutvalue="0.158 µM (active)"
molecule=CCCN[C@@H]1CCc2c(OC)cccc2[C@@H]1C target="Cytochrome P450 1A2 (Homo sapiens)" propertyname=AC50 readoutvalue="31.6 µM (inconclusive)"
molecule=CN(CCc1ccc(Cl)c(Cl)c1)C[C@@H](O)COc1ccc(NS(C)(=O)=O)cc1 target="Cytochrome P450 1A2 (Homo sapiens)" propertyname=AC50 readoutvalue="15.8 µM (inconclusive)"
molecule=Cn1c(=O)c2cc(S(=O)(=O)NCCC(=O)N3CC=C(c4ccccc4)CC3)ccc2n(C)c1=O target="Cytochrome P450 1A2 (Homo sapiens)" propertyname=AC50 readoutvalue="31.6 µM (inconclusive)"
molecule=CS(=O)(=O)Nc1cccc(-c2nc(N3CCNCC3)c3ccccc3n2)c1 target="Cytochrome P450 1A2 (Homo sapiens)" propertyname=AC50 readoutvalue="20 µM (inconclusive)"
molecule=CCn1c(S)nnc1CC(C)C target="Cytochrome P450 1A2 (Homo sapiens)" propertyname=AC50 readoutvalue="22.4 µM (inconclusive)"
molecule=COc1ccccc1NC(=O)CCc1c(C)nc(O)c(C#N)c1C target="Cytochrome P450 1A2 (Homo sapiens)" propertyname=AC50 readoutvalue="0.00631 µM (inconclusive)"
molecule=CCOC(=O)c1c(C)n(C)c2ccc(OC)c(NS(=O)(=O)c3ccc(Cl)s3)c12 target="Cytochrome P450 1A2 (Homo sapiens)" propertyname=AC50 readoutvalue="5.62 µM (inconclusive)"
molecule=O=C(Nc1cccc(F)c1)N1CC[C@@]2(CCCN(C(=O)Oc3ccccc3)C2)C1 target="Cytochrome P450 1A2 (Homo sapiens)" propertyname=AC50 readoutvalue="15.8 µM (inconclusive)"
molecule=NCOC(=O)Cc1ccc(Br)cc1 target="Cytochrome P450 1A2 (Homo sapiens)" propertyname=AC50 readoutvalue="0.2 µM (active)"
molecule=Cc1c(C(=O)Nc2cccc(C(F)(F)F)c2)oc2ccc(S(=O)(=O)N3CCOCC3)cc12 target="Cytochrome P450 1A2 (Homo sapiens)" propertyname=AC50 readoutvalue="10 µM (inconclusive)"
molecule=CCOc1ccc(-c2c(=O)n(OCc3ccccn3)c3ccccc3[n+]2[O-])cc1 target="Cytochrome P450 1A2 (Homo sapiens)" propertyname=AC50 readoutvalue="12.6 µM (inconclusive)"

Data credit: ChEMBL document CHEMBL1201862
